- ASSAYED_TARGET: CDK13/Cyclin K (Homo sapiens, UniProt Q14004)
- Sequence (O75909 whole entry): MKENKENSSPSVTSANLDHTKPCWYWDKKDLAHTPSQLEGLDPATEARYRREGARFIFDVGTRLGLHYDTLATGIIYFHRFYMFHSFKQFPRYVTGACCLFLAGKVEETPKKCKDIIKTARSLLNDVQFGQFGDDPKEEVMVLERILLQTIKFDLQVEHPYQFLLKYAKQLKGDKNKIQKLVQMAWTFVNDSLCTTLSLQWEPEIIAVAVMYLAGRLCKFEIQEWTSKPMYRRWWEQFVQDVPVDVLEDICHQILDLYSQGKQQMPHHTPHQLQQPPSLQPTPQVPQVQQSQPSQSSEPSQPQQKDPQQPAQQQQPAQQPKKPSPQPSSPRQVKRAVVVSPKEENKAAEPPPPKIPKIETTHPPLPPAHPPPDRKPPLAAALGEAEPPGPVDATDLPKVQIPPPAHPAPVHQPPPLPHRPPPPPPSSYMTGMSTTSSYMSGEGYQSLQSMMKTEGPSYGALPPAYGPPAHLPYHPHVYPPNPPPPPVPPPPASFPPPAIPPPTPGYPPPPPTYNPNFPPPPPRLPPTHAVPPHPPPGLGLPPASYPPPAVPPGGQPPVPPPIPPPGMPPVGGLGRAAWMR
- Sequence (Q14004 other isoform, or with tags, fused parts or gaps): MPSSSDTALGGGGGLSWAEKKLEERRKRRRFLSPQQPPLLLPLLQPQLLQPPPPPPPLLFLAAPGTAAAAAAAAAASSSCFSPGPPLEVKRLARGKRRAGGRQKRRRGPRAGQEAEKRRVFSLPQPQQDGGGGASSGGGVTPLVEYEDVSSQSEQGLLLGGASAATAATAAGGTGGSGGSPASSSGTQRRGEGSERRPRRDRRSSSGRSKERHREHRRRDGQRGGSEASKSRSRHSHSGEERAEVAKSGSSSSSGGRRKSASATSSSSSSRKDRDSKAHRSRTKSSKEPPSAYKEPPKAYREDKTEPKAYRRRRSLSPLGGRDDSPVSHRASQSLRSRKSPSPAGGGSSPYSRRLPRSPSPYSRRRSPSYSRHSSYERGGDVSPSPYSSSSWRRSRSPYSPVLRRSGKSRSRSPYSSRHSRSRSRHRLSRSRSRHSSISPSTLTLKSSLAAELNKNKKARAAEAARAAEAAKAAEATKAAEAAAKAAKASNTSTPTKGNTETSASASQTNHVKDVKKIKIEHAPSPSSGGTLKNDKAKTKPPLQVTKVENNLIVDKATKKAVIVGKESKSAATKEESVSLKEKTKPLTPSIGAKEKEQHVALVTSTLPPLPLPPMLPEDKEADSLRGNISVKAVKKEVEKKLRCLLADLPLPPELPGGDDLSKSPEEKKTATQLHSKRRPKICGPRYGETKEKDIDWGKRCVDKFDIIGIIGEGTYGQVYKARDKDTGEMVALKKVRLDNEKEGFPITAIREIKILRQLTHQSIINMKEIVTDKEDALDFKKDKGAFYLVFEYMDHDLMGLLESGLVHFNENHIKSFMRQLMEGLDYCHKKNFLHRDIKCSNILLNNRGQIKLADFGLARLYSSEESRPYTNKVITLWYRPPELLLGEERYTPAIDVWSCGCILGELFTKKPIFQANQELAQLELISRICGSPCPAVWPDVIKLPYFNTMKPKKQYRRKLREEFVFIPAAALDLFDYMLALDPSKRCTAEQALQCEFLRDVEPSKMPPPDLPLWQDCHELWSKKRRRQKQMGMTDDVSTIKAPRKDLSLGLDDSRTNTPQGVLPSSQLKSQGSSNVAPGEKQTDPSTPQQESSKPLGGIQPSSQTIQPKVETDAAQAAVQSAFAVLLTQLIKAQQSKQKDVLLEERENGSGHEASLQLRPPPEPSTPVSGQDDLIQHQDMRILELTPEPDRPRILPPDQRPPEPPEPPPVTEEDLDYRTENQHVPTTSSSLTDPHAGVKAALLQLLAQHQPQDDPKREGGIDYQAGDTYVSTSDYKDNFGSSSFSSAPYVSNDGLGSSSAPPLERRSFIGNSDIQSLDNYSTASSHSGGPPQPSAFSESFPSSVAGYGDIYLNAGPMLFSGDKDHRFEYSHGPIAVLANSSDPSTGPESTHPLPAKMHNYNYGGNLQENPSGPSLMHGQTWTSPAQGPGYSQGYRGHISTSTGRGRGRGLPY
- PROCEDURE_TEXT: NanoBRET live-cell target engagement, CDK13-NanoLuc/Cyclin K in HEK-293
- Format: binding
- CONDITION_LABEL: 10µM; average of experiments; read-out: CDK13/K Inhibition at 10µM (%)
ASSAY_METRIC: inhibition at 10 µM (%)

> print(dat)
                                smiles.text  result.number
1  CC(C)[C@H](CO)Nc1nc(Nc2ccc(C(=O)O)c(Cl)c2)c2ncn(C(C)C)c2n1            2.3

I. CN(C)C(=O)c1cc2cnc(Nc3ccc(N4CCNCC4)cn3)nc2n1C1CCCC1
II. CN1C/C=C/CCOc2cccc(c2)-c2ccnc(n2)Nc2cccc(c2)C1
Return label of the item with the larger inhibition at 10 µM. Candidates: I , II . Answer by stating the label of the chosen item.
II
